Biological target: Serine/threonine-protein kinase PAK 2 (Homo sapiens) (UniProt Q13177);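 also: values are mean percent inhibition of PAK2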
Sequence (Q13177 whole entry): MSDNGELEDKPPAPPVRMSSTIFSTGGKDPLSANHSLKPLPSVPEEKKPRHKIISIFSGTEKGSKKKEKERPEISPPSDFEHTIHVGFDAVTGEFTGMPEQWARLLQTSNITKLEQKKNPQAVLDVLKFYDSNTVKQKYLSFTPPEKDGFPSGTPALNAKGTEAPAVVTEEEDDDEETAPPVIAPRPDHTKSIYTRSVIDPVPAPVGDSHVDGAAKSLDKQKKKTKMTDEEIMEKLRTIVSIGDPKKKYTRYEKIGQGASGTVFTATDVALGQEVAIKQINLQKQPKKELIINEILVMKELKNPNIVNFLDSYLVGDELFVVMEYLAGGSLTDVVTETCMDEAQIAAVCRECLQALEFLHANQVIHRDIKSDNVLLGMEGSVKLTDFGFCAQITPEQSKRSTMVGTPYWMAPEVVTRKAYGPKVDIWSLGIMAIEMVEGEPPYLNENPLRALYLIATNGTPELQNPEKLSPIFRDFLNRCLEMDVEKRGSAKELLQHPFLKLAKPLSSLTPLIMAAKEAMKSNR
Details: at 0.1 µM
quantity: inhibition (%)

molecule	measuredValue
CCN1CCC(C(=O)Nc2n[nH]c3nnc(-c4cccc(F)c4F)cc23)CC1	-1.1
CC1(C)CC(n2cnc(-c3ccc(F)cc3)c2-c2ccnc(N)n2)CC(C)(C)N1	-0.56
CCS(=O)(=O)c1ccc(OC)c(Nc2ncc(-c3cccc(C(C)=O)c3)o2)c1	2.47
O=C(O[C@H]1CN[C@H](C#Cc2cc3ncnc(Nc4ccc5c(cnn5Cc5ccccc5)c4)c3s2)C1)N1CCOCC1	-1.9
N#Cc1ccc2c(-c3ccnc(NC4CC4)n3)c(-c3ccc(F)cc3)nn2c1	0.74
CS(=O)(=O)Nc1ccc(-c2ccc3c(NC(=O)C4CC4)n[nH]c3c2)cc1	1.62
NS(=O)(=O)c1cccc(N/C=C2\C(=O)Nc3ccccc32)c1	1.76
N#Cc1cccc(Nc2ncc(-c3ccccc3)o2)c1	0.33
COc1cccc(Nc2nccc(-c3cnn4ncccc34)n2)c1	1
CCOc1ccc2c(-c3ccnc(Nc4cc(OC)cc(C(F)(F)F)c4)n3)cnn2n1	-0.62
CS(=O)(=O)CCNCc1ccoc1-c1ccc2ncnc(Nc3ccc(OCc4ccccc4)cc3)c2c1	-0.75
CN(c1ccc(NC(=O)NCCN2CCOCC2)cc1)c1ccnc(Nc2ccc(CS(C)(=O)=O)cc2)n1	2.52
CNC(=O)c1cncc(/C=C/c2ccccc2C)c1	2.06
CN1CCC(n2cnc(-c3ccc(F)cc3)c2-c2ccnc(NCCO)n2)CC1	2.03
Fc1ccc(Nc2nccc(-c3c(-c4ccc(C(F)(F)F)cc4)nn4ncccc34)n2)cc1F	1.92
NS(=O)(=O)c1ccc(N/N=C2\C(=O)Nc3ccc(C(=O)NCc4ccncc4)cc32)cc1	2.01
Cc1cc(O)cc(C)c1/C=C/c1cncc(C(=O)OC(C)(C)C)c1	-0.11
Cn1c(-c2nonc2N)nc2cnccc21	1.04
COc1ccc(-c2nn3ncccc3c2-c2ccnc(Nc3ccc(F)c(F)c3)n2)cc1	1.93
FC(F)(F)CNc1nccc(-c2cnn3ncccc23)n1	0.24
CCCNc1cccc(-n2ncc3c(N/N=C/c4ccncc4)ncnc32)c1	0.12
COc1cc(Nc2ncc(-c3ccccc3)o2)cc(OC)c1	1.76
COC(=O)Nc1nc2cc(Oc3ccc(NC(=O)Nc4ccccc4)cc3)ccc2[nH]1	1.73
CC1=C(C(=O)Nc2ccc3[nH]ncc3c2)C(c2ccc(F)cc2)N=C(c2ccc(C(F)(F)F)nc2)N1 (stereo not drawn)	0.86
O=C(O[C@H]1CN[C@H](C#Cc2cc3ncnc(Nc4ccc5c(ccn5Cc5cc(F)ccc5F)c4)c3s2)C1)N1CCOCC1	2.13
COc1cc(N2CCN(C(C)C)CC2)ccc1Nc1nc(Nc2cccc3ncccc23)c2cc[nH]c2n1	0.87
COc1ccc2ncn(-c3cc(O[C@H](C)c4ccccc4C(F)(F)F)c(C(N)=O)s3)c2c1	-1.58
c1cnn2ncc(-c3ccnc(NCCCN4CCOCC4)n3)c2c1	1.39

====

Target: Serine/threonine-protein kinase Chk2 (Homo sapiens) (UniProt O96017);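 also: reported value is the mean inhibition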
Sequence (O96017 whole entry): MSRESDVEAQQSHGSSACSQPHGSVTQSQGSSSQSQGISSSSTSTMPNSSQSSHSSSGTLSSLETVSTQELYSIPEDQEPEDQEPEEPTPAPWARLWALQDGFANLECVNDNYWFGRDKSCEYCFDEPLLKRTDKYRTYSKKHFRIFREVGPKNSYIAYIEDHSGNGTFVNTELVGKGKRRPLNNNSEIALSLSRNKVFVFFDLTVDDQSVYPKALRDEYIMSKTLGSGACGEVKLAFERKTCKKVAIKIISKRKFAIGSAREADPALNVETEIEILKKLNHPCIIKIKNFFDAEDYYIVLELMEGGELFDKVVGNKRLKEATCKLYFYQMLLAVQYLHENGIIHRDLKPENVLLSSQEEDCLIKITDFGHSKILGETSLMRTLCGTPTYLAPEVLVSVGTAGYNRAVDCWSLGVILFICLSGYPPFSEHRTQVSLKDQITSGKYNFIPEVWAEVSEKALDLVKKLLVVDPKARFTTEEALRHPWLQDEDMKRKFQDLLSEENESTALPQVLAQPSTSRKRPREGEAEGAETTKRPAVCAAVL
Conditions: at 1 µM
inhibition values by entry

molecule	inhibition
COc1c(C(N)=O)cc(-c2ccc(Cl)cc2)cc1-c1ccc(S(N)(=O)=O)cc1	10.5%
NC(=O)c1ccc2c(-c3ccnc(NCCCO)n3)c(-c3ccc(F)cc3)nn2c1	10.6%
O=C(O[C@H]1CN[C@H](C#Cc2cc3ncnc(Nc4ccc5c(ccn5Cc5cc(F)ccc5F)c4)c3s2)C1)N1CCOCC1	6.4%
CC1=C(C(=O)Nc2ccc3[nH]nc(C)c3c2)C(c2ccc(C(F)(F)F)cc2)CC(=O)N1 (stereo not drawn)	6.02%
CCS(=O)(=O)c1ccc(OC)c(Nc2ncc(-c3cccc(C(C)=O)c3)o2)c1	3.67%
COc1ccc(-c2nn3ncccc3c2-c2ccnc(Nc3ccc(F)c(F)c3)n2)cc1	7.89%
c1ccc(-c2n[nH]cc2-c2ccnc(-c3ccc(OCCn4ccnc4)cc3)c2)nc1	-2.77%
COc1cc2c(cc1Nc1nc(Nc3cccc(F)c3C(N)=O)c3cc[nH]c3n1)N(C(=O)CN1CCN(C(C)C)CC1)CC2	29.8%
